Values compiled from paper PMC9482650.

- target_or_test_system: MAGI2_5, Q86UL8
- Sequence (Q86UL8 915-1017): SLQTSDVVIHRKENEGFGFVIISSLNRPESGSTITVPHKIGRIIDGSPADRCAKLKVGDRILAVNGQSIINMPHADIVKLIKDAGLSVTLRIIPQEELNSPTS
- assay_overview: holdup assay
- Design: key: below the threshold = too weak to quantify, mostly under pKd 3.1 to 4
- condition_summary: plain residues with an end cap or a label only (N-terminal biotin on a linker: ado-ado)
assay_endpoint: pKd

Reference set (5 entries):
binder	pKd
FNSYSLTGYV [CLDN2, P57739]	below the threshold
QSARLWETSI [ADAM22, Q9P0K1]	3.7
TLPRKRMSSI [GPRC6A, Q5T6X5]	below the threshold
RRLPGKETMA [GRIK2, Q13002]	below the threshold
SAAKVLTSMC [GHRHR, Q02643]	4.36

For this binder ( PDGQCTVTEV [RNF146, Q9NTX7] ), measured pKd is 4.47

For this binder ( EALLQMESVA [CAVIN3, Q969G5] ), measured pKd is below the threshold

For this binder ( KSGKQTMLVV [TRIM29, Q14134;Q14134-2] ), measured pKd is below the threshold

For this binder ( DTTVPESEDL [MYOZ2, Q9NPC6] ), measured pKd is below the threshold
